- System: P. falciparum 3D7 parasites
- TEST: P. falciparum growth inhibition assay, 1-cycle (72 h treatment), SYBR DNA staining (library screen at 2 μg/mL and dose-response)
- Type: cell-based, Plasmodium falciparum
METRIC: Pf_72h_%Growth_Rep1

• COc1cc2c(c3oc(=O)c4c(c13)CCC4=O)[C@@H]1CCO[C@@H]1O2 = 82.21%
• CCC[C@@H]1C[C@@H](C(=O)N[C@@H]([C@H]2O[C@H](SC)[C@H](OP(=O)(O)O)[C@@H](O)[C@H]2O)[C@H](C)Cl)N(C)C1 [Clindamycin 2-phosphate, reference compound] = 73.78%
• CO[C@H]1C[C@H](O[C@H]2[C@H](C)O[C@@H](O[C@@H]3/C(C)=C/C[C@@H]4C[C@@H](C[C@]5(C=C[C@H](C)[C@@H](C(C)C)O5)O4)OC(=O)[C@@H]4C=C(C)[C@@H](O)[C@H]5OC/C(=C\C=C\[C@@H]3C)[C@]54O)C[C@@H]2OC)O[C@@H](C)[C@H]1NC(C)=O = 56.32%
• COc1cc2c(c3oc(=O)c4c(c13)CCOC4=O)C1C=COC1O2 (stereo not shown) = 72.54%

---

- Test system: P. falciparum 3D7 parasites
- TEST: P. falciparum growth inhibition assay, 2-cycle (120 h treatment), delayed-death screen and dose-response
- Format: cell-based, Plasmodium falciparum
- COND: library screen at 2 μg/mL, 120 h, % growth, replicate 2
METRIC: Pf_120h_%Growth_Rep2 (%)

- CC(C)C[C@H]1C(=O)O[C@H](C(C)C)C(=O)N(C)[C@@H](CC(C)C)C(=O)O[C@H](C(C)C)C(=O)N(C)[C@@H](CC(C)C)C(=O)O[C@H](C(C)C)C(=O)N(C)[C@@H](CC(C)C)C(=O)O[C@H](C(C)C)C(=O)N1C [Bassianolide]: -3.01
- CC(=O)O[C@H]1CCC2(C)C3=C(CCC2C1(C)C)[C@@]1(C)CC[C@@H](C(C)CCC=C(C)C)[C@]1(C)CC3 (stereo partly shown) [Euphol acetate]: 92.36
- C[C@@H]1C=C2C(=O)O[C@@H]3CC[C@H](C1)[C@]23O [Galiellalactone]: 97.41
- CO[C@H]1C[C@H](O[C@H]2[C@H](C)O[C@@H](O[C@@H]3/C(C)=C/C[C@@H]4C[C@@H](C[C@]5(C=C[C@H](C)[C@@H](C6CCCCC6)O5)O4)OC(=O)[C@@H]4C=C(C)[C@@H](O)[C@H]5OC/C(=C\C=C\[C@@H]3C)[C@]54O)C[C@@H]2OC)O[C@@H](C)[C@@H]1O [Doramectin]: 96.33
- C=C[C@@H](CO)[C@H]1CCN2CCc3c([nH]c4ccccc34)[C@@H]2C1 [Anthirine]: 48.16
- COC1=C(N)C(=O)c2nc(-c3nc(C(=O)O)c(C)c(-c4cccc(OC)c4O)c3N)ccc2C1=O [Desmethoxystreptonigrin, 10'-]: 8.14
- C=C1CC[C@H]2[C@@](C)(CC[C@H]3C(C)(C)[C@@H](OC(C)=O)CC[C@]23C)[C@@H]1Cc1c(O)cc(C)oc1=O [Aszonapyrone A]: 67.36
- COC12c3c(C)cc(O)c4c(=O)occ(c34)C(=O)C1C13COC(=O)c4c(O)cc(C)c(c41)C(=O)C2C3OC(C)=O (stereo not shown) [Duclauxin]: 120.62
- COc1ccc2cc1Oc1cc(ccc1O)[C@H](O)[C@]13SS[C@@]4(C(=O)N1C)[C@H](O)C1=COC=C[C@H](OC2=O)[C@H]1N4C3=O [Emestrin]: 47.36
- COc1ccc(-c2coc3cc(O)cc(O)c3c2=O)cc1 [Biochanin A]: 100.13
- CNC[C@@H]1CC[C@@H](N)[C@@H](O[C@H]2[C@H](O)[C@@H](O[C@H]3OC[C@](C)(O)[C@H](NC)[C@H]3O)[C@H](N)C[C@@H]2N)O1 [Gentamicin C2b]: 7.07
- CO/C1=C\C(C)=C\C(C)C(O)C(C)C/C(C)=C/C=C/C(OC)C(C(C)C(O)C(C)C2(O)CC(OC(=O)/C=C/C(=O)O)C(C)C(C(C)C)O2)OC1=O (stereo not shown) [Bafilomycin C1]: -2.55
- COc1c2c(cc3c1c(=O)c1ccccc1n3C)OCO2 [Evoxanthine]: 89.49
